Test system: PC-3
assayOverview: Antiproliferative activity against human PC3 cells after 24 hrs by MTT assay
Type: functional, cell-based
details: PC-3, 24 h
pIC50: −log10 of the molar value.
Rule: Condition met for pIC50 not less than 5, Condition not met for anything less.

Below are worked cases with known answers.
| smilesEntry | group |
| --- | --- |
| CCn1c(C(=O)NCCN)ccc1C(CC)(CC)c1ccc(OCS(=O)(=O)c2ccccc2)c(C)c1 | Condition met |
| CCN(CC)CCNC(=O)c1cc(C(CC)(CC)c2ccc(OCSc3ccccc3)c(C)c2)cn1CC | Condition met |
| CCn1c(C(=O)NC2(CO)CC2)ccc1C(CC)(CC)c1ccc(OCS(=O)(=O)c2ccccc2)c(C)c1 | Condition met |
| CCN(CC)CCNC(=O)c1ccc(C(CC)(CC)c2ccc(OCS(C)(=O)=O)c(C)c2)n1CC | Condition not met |
| CCn1c(C(=O)N[C@@H](C)C(=O)OC)ccc1C(CC)(CC)c1ccc(OCS(=O)(=O)c2ccccc2)c(C)c1 | Condition not met |

Hi, just wondering whether CCn1c(C(=O)N[C@@H](CC(=O)O)C(=O)O)ccc1C(CC)(CC)c1ccc(OCS(=O)(=O)c2ccccc2)c(C)c1 shows pIC50 of 5 or higher.
Condition not met

====

assayOverview: Half life in Sprague-Dawley rat at 5 mg/kg, iv by HPLC method
Assay type: ADME, organism-based
details: in vivo
metricName: half-life (min)
Dear colleague, please return just the value in min, with no unit written.

| molecule | metricName | unitTag | reportedValue |
| --- | --- | --- | --- |
| CCN(CC)CCNC(=O)c1cc(C(CC)(CC)c2ccc(OCS(=O)(=O)c3ccccc3)c(C)c2)cn1CC | half-life | min | 396 |
| CCN(CC)CCNC(=O)c1ccc(C(CC)(CC)c2ccc(OCSC)c(C)c2)n1CC | half-life | min | 283 |

Then there is this molecule:
Read the entry CCn1c(C(=O)N[C@@H](C)CO)ccc1C(CC)(CC)c1ccc(OCC(O)C(C)(C)C)c(C)c1 (stereo partly drawn) and write its reported half-life.
173

====

assayOverview: AUC in Sprague-Dawley rat at 20 mg/kg, ip by HPLC method
Assay type: ADME, organism-based
details: in vivo
metricName: AUC (ng·h/mL)
Report as a plain number; the unit ng·h/mL is understood.

Before answering, review these 2 worked examples.
| compound | metricName | reportedValue |
| --- | --- | --- |
| CCn1c(C(=O)N[C@@H](C)CO)ccc1C(CC)(CC)c1ccc(OCC(O)C(C)(C)C)c(C)c1 (stereo partly drawn) | AUC | 6040 |
| CCN(CC)CCNC(=O)c1cc(C(CC)(CC)c2ccc(OCS(=O)(=O)c3ccccc3)c(C)c2)cn1CC | AUC | 12000 |

Answer with reported AUC of CCN(CC)CCNC(=O)c1ccc(C(CC)(CC)c2ccc(OCSC)c(C)c2)n1CC
20400

====

Tested on: MCF7
assayOverview: Cell cycle arrest in human MCF7 cells expressing scrambled siRNA assessed as accumulation at S phase at 1 uM after 24 hrs by propidium iodide staining based flow cytometry (reference value: 29.79%)
Assay type: functional
Below, each of the molecules is paired with its reported Activity value.
Numbers only; they are read as %.

| molecule | unitTag | Activity |
| --- | --- | --- |
| CCN(CC)CCNC(=O)c1cc(C(CC)(CC)c2ccc(OCS(=O)(=O)c3ccccc3)c(C)c2)cn1CC | % | 29.66 |
| C=C1/C(=C\C=C2/CCC[C@]3(C)[C@@H]([C@H](C)CCCC(C)(C)O)CC[C@@H]23)C[C@@H](O)C[C@@H]1O | % | 30.32 |
| CCN(CC)CCNC(=O)c1ccc(C(CC)(CC)c2ccc(OCSc3ccccc3)c(C)c2)n1CC | % | 31.59 |
| CCN(CC)CCNC(=O)c1ccc(C(CC)(CC)c2ccc(OCSC)c(C)c2)n1CC | % | 27.95 |
| CCn1c(C(=O)N[C@@H](C)CO)ccc1C(CC)(CC)c1ccc(OCC(O)C(C)(C)C)c(C)c1 (stereo partly specified) | % | 31.41 |

Switching to the query record.
For the molecule CCN(CC)CCNC(=O)c1cc(C(CC)(CC)c2ccc(OCSC)c(C)c2)cn1CC , give its measured Activity value.
30.52

====

Tested on: PC-3
assayOverview: Antiproliferative activity against human PC3 cells after 24 hrs by MTT assay
Format: functional, cell-based
details: PC-3, 24 h
pIC50: −log10 of the molar value.
Rule: pIC50 of 5 or more gives 1 (yes); anything lower gives 0 (no).

| smilesEntry | testedSystem | group |
| --- | --- | --- |
| CCn1c(C(=O)NCC(=O)OC)ccc1C(CC)(CC)c1ccc(OCS(=O)(=O)c2ccccc2)c(C)c1 | PC-3 | 0 (no) |
| CCn1c(C(=O)NCCNC(=O)OC(C)(C)C)ccc1C(CC)(CC)c1ccc(OCS(=O)(=O)c2ccccc2)c(C)c1 | PC-3 | 0 (no) |
| CCn1c(C(=O)N[C@@H](CO)CCO)ccc1C(CC)(CC)c1ccc(OCS(=O)(=O)c2ccccc2)c(C)c1 | PC-3 | 0 (no) |

# evaluate next
API: above_or_equal(metric=pIC50, cutoff=5) for item CCn1c(C(=O)NCCC(=O)OC)ccc1C(CC)(CC)c1ccc(OCS(=O)(=O)c2ccccc2)c(C)c1
0 (no)

====

Test system: PC-3
assayOverview: Antiproliferative activity against human PC3 cells after 24 hrs by MTT assay
Assay type: functional, cell-based
details: PC-3, 24 h
For each record, check the reported IC50: if it is below 8 µM write Yes, else write No.

The examples below pair each entry with its known result.
| compound | group |
| --- | --- |
| CCn1c(C(=O)N[C@H](CO)CCO)ccc1C(CC)(CC)c1ccc(OCS(=O)(=O)c2ccccc2)c(C)c1 | No |
| CCn1c(C(=O)N[C@H](C)C(=O)OC)ccc1C(CC)(CC)c1ccc(OCS(=O)(=O)c2ccccc2)c(C)c1 | No |
| CCn1c(C(=O)N[C@@H](C)CO)ccc1C(CC)(CC)c1ccc(OCC(O)C(C)(C)C)c(C)c1 (stereo not given in full) | No |
| CCn1c(C(=O)N[C@H](CCC(=O)O)C(=O)O)ccc1C(CC)(CC)c1ccc(OCS(=O)(=O)c2ccccc2)c(C)c1 | No |
| CCn1c(C(=O)NCC(=O)O)ccc1C(CC)(CC)c1ccc(OCS(=O)(=O)c2ccccc2)c(C)c1 | No |

In plain terms, does CCN(CC)CCNC(=O)c1cc(C(CC)(CC)c2ccc(OCS(=O)(=O)c3ccccc3)c(C)c2)cn1CC come in under 8 µM for IC50?
Yes

Could you please tell me whether IC50 recorded for CCn1c(C(=O)N[C@H](CC(=O)O)C(=O)O)ccc1C(CC)(CC)c1ccc(OCS(=O)(=O)c2ccccc2)c(C)c1 is less than 8 µM?
No

====

System: PC-3
assayOverview: Antiproliferative activity against human PC3 cells after 24 hrs by MTT assay
Assay type: functional, cell-based
details: PC-3, 24 h
pIC50: −log10 of the molar value.
Note to self: values exactly at 5 are yes (1). So pIC50 at or above 5 is yes (1), below is no (0).

Previously resolved entries follow.
| smilesEntry | group |
| --- | --- |
| CCn1c(C(=O)NCCC(=O)O)ccc1C(CC)(CC)c1ccc(OCS(=O)(=O)c2ccccc2)c(C)c1 | no (0) |
| CCn1c(C(=O)NCCO)ccc1C(CC)(CC)c1ccc(OCS(=O)(=O)c2ccccc2)c(C)c1 | no (0) |
| CCn1c(C(=O)NC2(C(=O)O)CC2)ccc1C(CC)(CC)c1ccc(OCS(=O)(=O)c2ccccc2)c(C)c1 | no (0) |
| CCn1c(C(=O)N[C@@H](C)C(=O)O)ccc1C(CC)(CC)c1ccc(OCS(=O)(=O)c2ccccc2)c(C)c1 | no (0) |
| CCN(CC)CCNC(=O)c1ccc(C(CC)(CC)c2ccc(OCSC)c(C)c2)n1CC | yes (1) |

Has CCn1c(C(=O)N[C@@H](CC(=O)OC)C(=O)OC)ccc1C(CC)(CC)c1ccc(OCS(=O)(=O)c2ccccc2)c(C)c1 a recorded pIC50 greater than or equal to 5?
yes (1)

Answer whether pIC50 of CCn1c(C(=O)N[C@@H](CCC(=O)O)C(=O)O)ccc1C(CC)(CC)c1ccc(OCS(=O)(=O)c2ccccc2)c(C)c1 is greater than or equal to 5.
no (0)

Origin of values: ChEMBL document CHEMBL4270638
